Target: T1, Synthetic TMEM97 (108-176) peptide
T1 construct: Synthetic peptide; also called full C-terminal synthetic TMEM97
T1 peptide: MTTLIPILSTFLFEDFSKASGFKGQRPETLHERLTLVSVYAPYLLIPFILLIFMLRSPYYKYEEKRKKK
Experiment: ITC, Hst1 titrated into synthetic TMEM97 (108-176); ITC, not SPR; TMEM97 (108-176)
Square brackets hold non-standard residues; d marks the D form. Ends that are not written are not given here. pS = N[C@@H](COP(=O)(O)O)C(=O)O
Readout label: pKd
Answers are plain numbers, as −log10 of the molar value.

INPUT: Let me know recorded pKd for D[pS]HEKRHHGYRRKFHEKHHSHREFPFYGDYGSNYLYDN (Synthetic linear peptide made by Fmoc solid-phase synthesis; also called Hst1(1-38); H1) [Histatin 1 (Hst1)] , thanks.
OUTPUT: 6.05
